Listing: Viability of selected compounds
Test system: transfected CHO cells expressing recombinant human monoclonal antibody (cell line 1)
assay procedure: 24-deep well culture, cell line 1: VCD, viability, titer, qP
Type: cell-based, Chinese hamster
experimental conditions: Cell Line 1; 5 microM; D 1
Description: Transfected CHO cells expressing a recombinant human monoclonal antibody (mAb) are cultured in 24-deep well plates with seeding density at 1×10^7/mL for five days. […] Compounds are further evaluated essentially as described in Example 2 herein. […] Additional parameters measure include the presence or absence of high molecular weight substances (usually an indicator of protein aggregation; expressed as % of the total protein); and the relative percentage of Mannose 5. […]

CC1CCC(n2c3cnccc3c3cnc(Nc4ccc(N5CCNC(C)C5)nn4)nc32)CC1 (stereo not shown)    95.92%

Form: Entry = CC1CCC(n2c3cnccc3c3cnc(Nc4ccc(N5CCC6(CC5)CCS(=O)(=O)C6)nn4)nc32)CC1 (stereo not shown) | System = transfected CHO cells expressing recombinant human monoclonal antibody (cell line 1) | Viability = ____
95.94%

Form: Entry = CN(C)C1CCN(c2ccc(Nc3ncc4c5ccncc5n([C@H]5CC[C@H](C)CC5)c4n3)nn2)CC1 | System = transfected CHO cells expressing recombinant human monoclonal antibody (cell line 1) | Viability = ____
94.83%

Form: Entry = OC1CCN(c2ccc(Nc3ncc4c5ccncc5n(C5CCCC5)c4n3)nn2)C1 (stereo not shown) | System = transfected CHO cells expressing recombinant human monoclonal antibody (cell line 1) | Viability = ____
95.55%

====

Listing: Viability of selected compounds
Test system: transfected CHO cells expressing recombinant human monoclonal antibody (cell line 1)
assay procedure: 24-deep well culture, cell line 1: VCD, viability, titer, qP
Assay type: cell-based, Chinese hamster
experimental conditions: Cell Line 1; 10 microM; D 2

Worked examples, 4 compounds total:
OC1CCN(c2ccc(Nc3ncc4c5ccncc5n(C5CCCC5)c4n3)nn2)C1 (centres unmarked)    85.90%
CC1CCC(n2c3cnccc3c3cnc(Nc4ccc(N5CCC6(CC5)CCS(=O)(=O)C6)nn4)nc32)CC1 (centres unmarked)    83.23%
CN(C)C1CCN(c2ccc(Nc3ncc4c5ccncc5n(C5CCCC5)c4n3)nn2)CC1    82.97%
CC1CCC(n2c3cnccc3c3cnc(Nc4ccc(N5CCNC(C)C5)nn4)nc32)CC1 (centres unmarked)    82.20%

# ---- query compound ----
# input compound: CN(C)C1CCN(c2ccc(Nc3ncc4c(n3)C3(C=CC(C)(C)CC3)c3cnccc3-4)nn2)CC1 (centres unmarked) ; wanted: its Viability
89.83%

====

target system: CDK4/Cyclin D1 (Homo sapiens, UniProt P11802)
Construct: purchased Cell Signaling Technology
Sequence (P11802 whole entry, species assumed): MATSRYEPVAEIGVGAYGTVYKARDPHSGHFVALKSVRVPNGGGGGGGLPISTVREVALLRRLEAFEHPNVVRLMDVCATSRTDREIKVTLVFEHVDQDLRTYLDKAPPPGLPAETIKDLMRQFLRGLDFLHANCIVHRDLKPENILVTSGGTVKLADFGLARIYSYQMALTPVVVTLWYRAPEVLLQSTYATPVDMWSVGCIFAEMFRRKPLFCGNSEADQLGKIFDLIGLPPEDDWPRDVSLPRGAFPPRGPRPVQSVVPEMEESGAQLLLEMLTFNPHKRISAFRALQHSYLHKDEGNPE
Sequence (P24385 whole entry partner, species assumed): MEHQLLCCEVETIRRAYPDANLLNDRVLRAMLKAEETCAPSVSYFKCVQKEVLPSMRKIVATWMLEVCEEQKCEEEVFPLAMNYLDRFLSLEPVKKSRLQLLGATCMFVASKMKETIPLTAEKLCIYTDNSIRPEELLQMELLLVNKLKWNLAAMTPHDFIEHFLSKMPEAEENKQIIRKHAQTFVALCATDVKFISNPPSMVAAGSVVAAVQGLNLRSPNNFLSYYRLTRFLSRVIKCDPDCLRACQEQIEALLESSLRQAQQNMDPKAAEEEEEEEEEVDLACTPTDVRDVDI
assay procedure: CDK4 filtration kinase assay
Type: biochemical
experimental conditions: CDK4/Cyclin D1, Rb fragment substrate, [33P]-ATP
Listing: pIC50 of selected molecules
Field pIC50 (float): negative decimal logarithm of the concentration in molar.

Worked examples, 5 molecules total:
CN(C)C1CCN(c2ccc(Nc3ncc4c5ccncc5n(C5CCCC5)c4n3)nn2)CC1    8.50
CN(C)C1CCN(c2ccc(Nc3ncc4c(n3)C3(C=CC(C)(C)CC3)c3cnccc3-4)cn2)CC1 (stereo not shown)    7.47
CC1CCC(n2c3cnccc3c3cnc(Nc4ccc(N5CCC6(CC5)CCS(=O)(=O)C6)nn4)nc32)CC1 (stereo not shown)    8.35
CN(C)C1CCN(c2ccc(Nc3ncc4c5ccncc5n([C@H]5CC[C@H](C)CC5)c4n3)nn2)CC1    8.56
CN(C)C1CCN(c2ccc(Nc3ncc4c(n3)C3(C=CC(C)(C)CC3)c3cnccc3-4)nc2)CC1 (stereo not shown)    8.85

# input molecule: CC1CCC(n2c3cnccc3c3cnc(Nc4ccc(N5CCNC(C)C5)nn4)nc32)CC1 (stereo not shown) ; wanted: its pIC50
8.73

# input molecule: CC(=O)c1c(C)c2cnc(Nc3ccc(N4CCNCC4)nn3)nc2n(C2CCCC2)c1=O ; wanted: its pIC50
7.82

====

Listing: Viability of selected molecules
Test system: transfected CHO cells expressing recombinant human monoclonal antibody (cell line 1)
assay procedure: 24-deep well culture, cell line 1: VCD, viability, titer, qP
Type: cell-based, Chinese hamster
experimental conditions: Cell Line 1; 5 microM; D 4
# unit: % | format: bare number

Worked examples, 3 molecules total:
CC1CCC(n2c3cnccc3c3cnc(Nc4ccc(N5CCC6(CC5)CCS(=O)(=O)C6)nn4)nc32)CC1 (stereo not shown)    72.71
CC1CCC(n2c3cnccc3c3cnc(Nc4ccc(N5CCNC(C)C5)nn4)nc32)CC1 (stereo not shown)    76.30
OC1CCN(c2ccc(Nc3ncc4c5ccncc5n(C5CCCC5)c4n3)nn2)C1 (stereo not shown)    82.62

# input molecule: CN(C)C1CCN(c2ccc(Nc3ncc4c5ccncc5n([C@H]5CC[C@H](C)CC5)c4n3)nn2)CC1 ; wanted: its Viability
78.87

====

System: transfected CHO cells expressing recombinant human monoclonal antibody (cell line 1)
assay procedure: 24-deep well culture, cell line 1: VCD, viability, titer, qP
Format: cell-based, Chinese hamster
experimental conditions: Cell Line 1; 10 microM; D 3
Listing: Titer of selected compounds
# unit: g/L | format: bare number

Worked examples, 4 compounds total:
CC1CCC(n2c3cnccc3c3cnc(Nc4ccc(N5CCC6(CC5)CCS(=O)(=O)C6)nn4)nc32)CC1 (centres unmarked)    0.83
CC1CCC(n2c3cnccc3c3cnc(Nc4ccc(N5CCNC(C)C5)nn4)nc32)CC1 (centres unmarked)    0.86
OC1CCN(c2ccc(Nc3ncc4c5ccncc5n(C5CCCC5)c4n3)nn2)C1 (centres unmarked)    0.94
CN(C)C1CCN(c2ccc(Nc3ncc4c5ccncc5n(C5CCCC5)c4n3)nn2)CC1    0.94

# ---- query compound ----
# input compound: CN(C)C1CCN(c2ccc(Nc3ncc4c(n3)C3(C=CC(C)(C)CC3)c3cnccc3-4)nn2)CC1 (centres unmarked) ; wanted: its Titer
0.94

====

Tested on: transfected CHO cells expressing recombinant human monoclonal antibody (cell line 1)
assay procedure: 24-deep well culture, cell line 1: VCD, viability, titer, qP
Format: cell-based, Chinese hamster
experimental conditions: Cell Line 1; 5 microM; D 2
Listing: qP of selected compounds
# unit: pg/c/d | format: bare number

Worked examples, 3 compounds total:
CC1CCC(n2c3cnccc3c3cnc(Nc4ccc(N5CCC6(CC5)CCS(=O)(=O)C6)nn4)nc32)CC1 (stereo not shown)    71.53
CN(C)C1CCN(c2ccc(Nc3ncc4c5ccncc5n([C@H]5CC[C@H](C)CC5)c4n3)nn2)CC1    72.84
OC1CCN(c2ccc(Nc3ncc4c5ccncc5n(C5CCCC5)c4n3)nn2)C1 (stereo not shown)    62.69

# ---- query compound ----
Form: Entry = CC1CCC(n2c3cnccc3c3cnc(Nc4ccc(N5CCNC(C)C5)nn4)nc32)CC1 (stereo not shown) | System = transfected CHO cells expressing recombinant human monoclonal antibody (cell line 1) | qP = ____
69.17

====

Tested on: transfected CHO cells expressing recombinant human monoclonal antibody (cell line 1)
assay procedure: 24-deep well culture, cell line 1: VCD, viability, titer, qP
Format: cell-based, Chinese hamster
experimental conditions: Cell Line 1; 10 microM; D 1
assay readout: Viability (%)
# unit: % | format: bare number

Worked examples, 2 compounds total:
OC1CCN(c2ccc(Nc3ncc4c5ccncc5n(C5CCCC5)c4n3)nn2)C1 (centres unmarked)    95.31
CC1CCC(n2c3cnccc3c3cnc(Nc4ccc(N5CCC6(CC5)CCS(=O)(=O)C6)nn4)nc32)CC1 (centres unmarked)    94.71

# input compound: CN(C)C1CCN(c2ccc(Nc3ncc4c5ccncc5n(C5CCCC5)c4n3)nn2)CC1 ; wanted: its Viability
94.37

# input compound: CN(C)C1CCN(c2ccc(Nc3ncc4c(n3)C3(C=CC(C)(C)CC3)c3cnccc3-4)nn2)CC1 (centres unmarked) ; wanted: its Viability
95.80

# input compound: CC1CCC(n2c3cnccc3c3cnc(Nc4ccc(N5CCNC(C)C5)nn4)nc32)CC1 (centres unmarked) ; wanted: its Viability
94.69

====

Listing: qP of selected compounds
Tested on: transfected CHO cells expressing recombinant human monoclonal antibody (cell line 1)
assay procedure: 24-deep well culture, cell line 1: VCD, viability, titer, qP
Type: cell-based, Chinese hamster
experimental conditions: Cell Line 1; 10 microM; D 3
# unit: pg/c/d | format: bare number

OC1CCN(c2ccc(Nc3ncc4c5ccncc5n(C5CCCC5)c4n3)nn2)C1 (centres unmarked)    89.39
CC1CCC(n2c3cnccc3c3cnc(Nc4ccc(N5CCNC(C)C5)nn4)nc32)CC1 (centres unmarked)    92.01

# input compound: CC1CCC(n2c3cnccc3c3cnc(Nc4ccc(N5CCC6(CC5)CCS(=O)(=O)C6)nn4)nc32)CC1 (centres unmarked) ; wanted: its qP
87.30

# input compound: CN(C)C1CCN(c2ccc(Nc3ncc4c5ccncc5n(C5CCCC5)c4n3)nn2)CC1 ; wanted: its qP
86.83

# input compound: CN(C)C1CCN(c2ccc(Nc3ncc4c(n3)C3(C=CC(C)(C)CC3)c3cnccc3-4)nn2)CC1 (centres unmarked) ; wanted: its qP
70.60
